The origin of these recorded values is ChEMBL document CHEMBL4325909.

experiment: Selectivity index, ratio of IC50 for human MCF10A cells to IC50 for human MCF7 cells; assay type: toxicity; details: MCF10A cells versus MCF7 cells, read-out: Ratio IC50
measureName: selectivity ratio

The molecule "COc1ccc(OC)c(C(=O)/C=C/c2nc3ccccc3c(=O)[nH]2)c1" showed selectivity ratio equal to > 2

###

system: HCT-116; experiment: Cytotoxicity against human HCT116 cells assessed as reduction in cell viability at 20 uM after 72 hrs by MTS assay relative to control; type: functional
measureName: Activity

Worked examples, 6 compounds total:
O=C(/C=C/c1cccnc1)c1nc2ccccc2c(=O)[nH]1    >=50%
Cc1ccc(/C=C/C(=O)c2nc3ccccc3c(=O)[nH]2)cc1    >=50%
COc1cc(C(=O)/C=C/c2nc3ccccc3c(=O)[nH]2)cc(OC)c1OC    >=50%
COc1ccccc1C(=O)/C=C/c1nc2ccccc2c(=O)[nH]1    >=50%
O=C(/C=C/c1ccc(Cl)cc1)c1nc2ccccc2c(=O)[nH]1    >=50%
COc1cc(OC)c(C(=O)/C=C/c2nc3ccccc3c(=O)[nH]2)c(OC)c1    >=50%

Report Activity for every entry below.
1. N#Cc1ccc(/C=C/C(=O)c2nc3ccccc3c(=O)[nH]2)cc1
2. O=C(/C=C/c1nc2ccccc2c(=O)[nH]1)c1ccc(F)cc1
3. O=C(/C=C/c1nc2ccccc2c(=O)[nH]1)c1ccc(C(F)(F)F)cc1
4. COc1cccc(/C=C/C(=O)c2nc3ccccc3c(=O)[nH]2)c1

-- reply
[">=50%", "< 50%", "< 50%", ">=50%"]

Reported Activity ( "COc1ccc(C(=O)/C=C/c2nc3ccccc3c(=O)[nH]2)cc1" ) = >=50%
